# Tested on: C. elegans
# assayNotes: Efficacy against nematodes (C. elegans motility rating)
# Design: key: 0: no effect; 7: reduced movement in 24 h; 8: dead in 24 h; 9: dead in 4 h
# testSettings: dose 100 ppm, observations at 4 h and 24 h postimmersion
propertyMeasured: Rating
// no unit, no text: just the number

compound	Rating
O=C1OC(=Cc2ccc(Oc3ccccc3)cc2)C(O)=C1c1ccc(OC(F)(F)F)cc1 (mixture of isomers)	0
C=CCOC1=C(c2ccc(Cl)cc2)C(=O)OC1=Cc1ccc(C#N)cc1 (mixture of isomers)	0

GET /value?item= N#Cc1ccc(C2=C(O)C(=Cc3ccc4c(c3)OC(F)(F)O4)OC2=O)cc1 (mixture of isomers) &field=Rating returns 9

GET /value?item= O=C1OC(=Cc2cnccc2-c2ccc(OC(F)(F)F)cc2)C(O)=C1c1ccc(OC(F)(F)F)cc1 (mixture of isomers) &field=Rating returns 9

GET /value?item= O=C1OC(=Cc2ccc(C(F)(F)F)cc2)C(O)=C1c1ccc(C(F)(F)F)cc1 (mixture of isomers) &field=Rating returns 9

GET /value?item= N#Cc1cccc(C2=C(O)C(=Cc3ccc(-c4ccc(Cl)cc4)cc3)OC2=O)c1 (mixture of isomers) &field=Rating returns 9
